B1: TRIB1 (parent)
chain: SYVRSRKRLREEEAARLFKQIVSA

variants of: B1; assay: protein stability index of a GFP-peptide fusion (GPS, HEK-293T) (PSI 1-6); higher = more stable; settings: c terminus: a fixed tail appended;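 note: lentivirally expressed fusions sorted by FACS into six bins by GFP to DsRed ratio, PSI derived from sequencing read proportions per bin multiplied by bin number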
propertyLabel: protein stability index
Please respond with just the number, no unit label.

S1D ... 1.88
K19Q ... 2.21
R10S ... 2.34

For the variant "A14S" , what protein stability index is on record?
3.24

For the variant "Y2M" , what protein stability index is on record?
2.91

For the variant "R16F" , what protein stability index is on record?
2.66
